Recorded yeast fitness, one value per entry.
B1: tRNA (parent)
chain: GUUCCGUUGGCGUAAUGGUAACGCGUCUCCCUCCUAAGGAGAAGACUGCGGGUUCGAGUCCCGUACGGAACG

- Variants of: B1
- Protocol details: yeast fitness relative to wild type (ratio to wild type); higher = fitter; tRNA-Arg(CCU), competitive growth, 37 C, YPD
Fewer inactive variants are shown than the library holds.
Measurement kind: yeast fitness

{"columns": ["Variant key", "Measurement kind", "Value qualifier", "Data value"],
 "data": [
  ["A21U A42G", "yeast fitness", "=", 0.583],
  ["G52A G56C", "yeast fitness", "=", 0.687],
  ["C22G C61A", "yeast fitness", "=", 0.623],
  ["C27G A36U G39C", "yeast fitness", "=", 0.526],
  ["A15G C24G C29U C34G U35C U54G G67C", "yeast fitness", "≤", 0.5],
  ["C4U G23C", "yeast fitness", "=", 0.716],
  ["U8C C30U", "yeast fitness", "=", 0.935],
  ["U3C A37G", "yeast fitness", "=", 0.784],
  ["C5U U7A C30A G58C", "yeast fitness", "=", 0.543],
  ["U3C G12A A14U U54A A57U", "yeast fitness", "≤", 0.5],
  ["U13A C34G A45C A57C", "yeast fitness", "≤", 0.5]
]}
